ASSAY TARGET: rat orexin-1 receptor (Rattus norvegicus)
Sequence (P56718 whole entry): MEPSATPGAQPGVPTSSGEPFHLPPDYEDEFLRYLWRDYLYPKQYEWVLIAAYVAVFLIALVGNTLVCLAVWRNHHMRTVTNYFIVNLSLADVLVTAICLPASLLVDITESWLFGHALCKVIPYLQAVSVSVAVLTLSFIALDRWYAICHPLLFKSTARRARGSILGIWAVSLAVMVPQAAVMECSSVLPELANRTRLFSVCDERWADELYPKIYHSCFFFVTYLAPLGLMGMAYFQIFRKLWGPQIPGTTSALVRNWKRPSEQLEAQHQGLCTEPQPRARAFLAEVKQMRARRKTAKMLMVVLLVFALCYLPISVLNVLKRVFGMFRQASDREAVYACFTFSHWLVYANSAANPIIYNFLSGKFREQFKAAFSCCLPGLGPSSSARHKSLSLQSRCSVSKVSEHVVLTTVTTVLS
EXPERIMENTAL PROTOCOL: OX1R FLIPR Ca flux assay (CHO cells)
RUN PARAMETERS: CHO cells expressing rat orexin-1 receptor; agonist 70 pM Ala-6,12 orexin-A
REPORTED ENDPOINT: IC50 (µM)

# MOLECULE, ASSAY TARGET, READOUT UNITS, IC50
rows = [
    ("Cc1cc(C)nc(N2CCCN(C(=O)c3ccccc3C3CC3)CC2)n1 [Example 9]", "rat orexin-1 receptor (Rattus norvegicus)", "µM", 1.81),
    ("Cc1oc(N2CCCN(C(=O)c3ccc(F)cc3-n3nccn3)CC2)nc1C(C)(C)O [Example 18]", "rat orexin-1 receptor (Rattus norvegicus)", "µM", 2.9),
    ("Cc1oc(N2CCCN(C(=O)c3ccccc3-n3cccn3)CC2)nc1C(C)(C)O [Example 20]", "rat orexin-1 receptor (Rattus norvegicus)", "µM", 6.29),
    ("CCOc1ncccc1C(=O)N1CCCN(c2nc(C(C)(C)O)c(C)o2)CC1 [Example 21]", "rat orexin-1 receptor (Rattus norvegicus)", "µM", 7.89),
    ("CCOc1ccccc1C(=O)N1CCCN(c2nc(C)cc(C)n2)CC1 [Example 7]", "rat orexin-1 receptor (Rattus norvegicus)", "µM", 8.5),
]

A: Cc1oc(N2CCCN(C(=O)c3ccccc3OC(F)(F)F)CC2)nc1C(C)(C)O [Example 15]
B: Cc1cc(C)nc(N2CCCN(C(=O)c3ccc(F)cc3-n3nccn3)CC2)n1 [Example 3]
Input line: Select the item whose IC50 value is smaller, choosing between A and B . Refer to your chosen entry by its label in the reply.
Output line: A

* * *

ASSAY TARGET: human orexin-2 receptor (Homo sapiens, UniProt O43614)
Construct: expressed in transfected cells; host or cells: CHO cells (G418 selection)
Sequence (O43614 1-444): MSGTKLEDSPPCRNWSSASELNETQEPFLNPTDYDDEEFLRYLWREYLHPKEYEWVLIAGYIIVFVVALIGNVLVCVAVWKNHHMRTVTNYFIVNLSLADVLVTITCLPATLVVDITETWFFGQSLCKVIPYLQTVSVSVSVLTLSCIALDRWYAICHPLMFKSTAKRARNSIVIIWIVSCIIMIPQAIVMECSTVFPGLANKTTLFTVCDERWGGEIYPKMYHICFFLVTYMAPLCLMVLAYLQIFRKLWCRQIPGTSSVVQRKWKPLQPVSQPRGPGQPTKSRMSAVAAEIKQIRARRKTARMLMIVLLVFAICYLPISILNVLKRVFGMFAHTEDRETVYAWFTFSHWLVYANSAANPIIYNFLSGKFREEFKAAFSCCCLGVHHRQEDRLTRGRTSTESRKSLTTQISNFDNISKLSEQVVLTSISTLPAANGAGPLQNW
EXPERIMENTAL PROTOCOL: OX2R FLIPR Ca flux assay (CHO cells)
Format: cell-based
RUN PARAMETERS: ratio of OX1R FLIPR to OX2R FLIPR
REPORTED ENDPOINT: Fold Selectivity OX2R vs. OX1R (fold)

I: CCOc1ccccc1C(=O)N1CCCN(c2nc(C(C)(C)O)c(C)o2)CC1
II: Cc1cc(C)nc(N2CCCN(C(=O)c3ccccc3-n3nccn3)CC2)n1
Input line: Hi there! Just curious which has the higher Fold Selectivity OX2R vs. OX1R between I and II . Refer to your chosen entry by its label in the reply.
Output line: I
